measurement.target: Cytochrome P450 2C19 (Homo sapiens)
experiment.notes: Cytochrome panel assay with activity outcomes
condition.summary: recombinant CYP, pro-luciferin dealkylation, luminescence, p450-cyp2c19; series mostly up to 57.1 µM
In all, about 16,000 compounds went through this assay and about 5,800 (36%) were called active. Not shown: some 23% with an inconclusive outcome. The call rests on the fitted dose curve; in most records, active means well fitted curve in the direction sought with a large enough effect; inconclusive means small, poorly fitted or top-dose-only effect, or effect the other way; inactive means no such curve, though single readings can be large or run the other way. Some of the results follow.
Can you answer with just one of these options? active, inactive

Look up the recorded call for "CCCN1CCc2cccc3c2[C@@H]1Cc1ccc(O)c(O)c1-3" in this test. inactive

Look up the recorded call for C[N+]1(C)C2CC(OC(=O)C(CO)c3ccccc3)CC1[C@@H]1O[C@H]21 (some centres undefined) in this test. inactive

Look up the recorded call for CC(C)C12CN3CC(C(C)C)(CN(C1)C3c1cccnc1)C2=O (centres undefined) in this test. active

Look up the recorded call for "N#Cc1ccc(CN2CC[C@@]3(CCCN(C(=O)Oc4ccccc4)C3)C2)cc1" in this test. inactive

###

For each of the molecules below, state its activity, negative = inhibition.
measurement.target: Cytochrome P450 2C19 (Homo sapiens) (UniProt P33261)
Sequence (P33261 whole entry, looked up): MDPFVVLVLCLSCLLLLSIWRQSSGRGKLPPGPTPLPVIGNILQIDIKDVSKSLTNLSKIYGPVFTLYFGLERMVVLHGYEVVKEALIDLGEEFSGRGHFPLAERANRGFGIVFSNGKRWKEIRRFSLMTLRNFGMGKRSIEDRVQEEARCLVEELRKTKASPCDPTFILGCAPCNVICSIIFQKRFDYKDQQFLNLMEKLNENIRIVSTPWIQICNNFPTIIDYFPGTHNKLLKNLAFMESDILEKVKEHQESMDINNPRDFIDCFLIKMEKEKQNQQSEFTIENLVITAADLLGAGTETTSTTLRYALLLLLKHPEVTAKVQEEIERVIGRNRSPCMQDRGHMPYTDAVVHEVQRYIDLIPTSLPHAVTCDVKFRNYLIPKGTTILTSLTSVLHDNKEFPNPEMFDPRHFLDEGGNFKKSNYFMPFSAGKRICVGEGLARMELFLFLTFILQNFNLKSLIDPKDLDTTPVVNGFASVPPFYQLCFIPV
experiment.notes: Cytochrome panel assay with activity outcomes; on activity, negative = inhibition: on the % scale 0 is the no-effect control and ±100 the full control effect
condition.summary: recombinant CYP, pro-luciferin dealkylation, luminescence, p450-cyp2c19; series mostly up to 57.1 µM
Hit rate of the full screen: of about 16,000 compounds, about 5,800 (36%) were called active. Another 23% or so got no clear call; they are omitted. The list shows a part of the results.

Find the measured activity, negative = inhibition of "Cc1cc[c]([Sb]2[O][C@H]([C@H](O)[C@H](O)C(=O)O)[C@@H](CO)[O]2)cc1" and report it. 30.4% [at 11.4 µM] (inactive)

Find the measured activity, negative = inhibition of "CN(C)CCCNc1c2c(nc3ccc(Cl)cc13)CCCC2" and report it. 23.5% [at 11.4 µM] (inactive)

Find the measured activity, negative = inhibition of "COc1cc2c(cc1O)C[C@@H]1c3c(cc(O)c(OC)c3-2)CCN1C" and report it. 12.7% [at 11.4 µM] (inactive)

Find the measured activity, negative = inhibition of "C[C@@H]1O[C@@H](O[C@H]2C[C@@H](O)[C@@]3(CO)[C@H]4[C@H](O)C[C@]5(C)[C@@H](C6=CC(=O)OC6)CC[C@]5(O)[C@H]4CC[C@@]3(O)C2)[C@@H](O)[C@H](O)[C@H]1O" and report it. 30.3% [at 11.4 µM] (inactive)

Find the measured activity, negative = inhibition of "Cc1c2cc[n+](CCN3CCCCC3)cc2c(C)c2c1[nH]c1ccc(O)cc12" and report it. 17.2% [at 11.4 µM] (inactive)

Find the measured activity, negative = inhibition of "C[C@]12CC[C@H]3c4ccc(O)cc4CC[C@@H]3[C@H]1CC[C@@H]2OP(=O)(O)O" and report it. 34.7% [at 11.4 µM] (inactive)

Find the measured activity, negative = inhibition of "CN(CCC(=O)O)C1=Nc2ccc(Cl)cc2C(c2ccccc2)=[N+]([O-])C1" and report it. -1.35% [at 11.4 µM] (inactive)

Find the measured activity, negative = inhibition of "Nc1nc(N)c(N=Nc2ccc([As](=O)(O)O)c(O)c2)c(N)n1" and report it. 31% [at 11.4 µM] (inactive)

Find the measured activity, negative = inhibition of "C[C@@]12CC[C@H](O[C@@H]3O[C@H](CO)[C@@H](O)[C@H](O)[C@@H]3O)C[C@@H]1CC[C@H]1[C@H]2CC[C@@]2(C)[C@@H](C3=CCOC3=O)CC[C@]12O" and report it. 22.6% [at 11.4 µM] (inactive)

Find the measured activity, negative = inhibition of "O=[As](O)(O)c1ccc(N=Nc2ccc(O)cc2)cc1" and report it. -12.7% [at 11.4 µM] (inactive)

Find the measured activity, negative = inhibition of "NCCCN1CCN(c2ccccc2)CC1" and report it. 2.32% [at 11.4 µM] (inactive)

Find the measured activity, negative = inhibition of "Cn1c(=O)c2[nH]cnc2n(C)c1=O.[CH2-][C@H](Cc1cccc2cc(C(=O)O)c(=O)oc12)OC.[Hg].[OH-]" and report it. 27.4% [at 11.4 µM] (inactive)

Find the measured activity, negative = inhibition of "CCc1cc2c(nc1CC)CCN(CC/C(C)=N/OC)C2" and report it. 6.29% [at 11.4 µM] (inactive)

Find the measured activity, negative = inhibition of "NCCP(=O)(O)O" and report it. 26% [at 11.4 µM] (inactive)

###

measurement.target: Cytochrome P450 2C19 (Homo sapiens) (UniProt P33261)
experiment.notes: Cytochrome panel assay with activity outcomes
condition.summary: recombinant CYP, pro-luciferin dealkylation, luminescence, p450-cyp2c19; series mostly up to 57.1 µM
About 5,800 (36%) of roughly 16,000 compounds were called active. Roughly 23% stayed inconclusive and do not appear here. The call rests on the fitted dose curve; in most records, active means well fitted curve in the direction sought with a large enough effect; inconclusive means small, poorly fitted or top-dose-only effect, or effect the other way; inactive means no such curve, though single readings can be large or run the other way. This is one part of the list.
Can you answer with just one of these options? Y (active), N (inactive)

Look up the recorded call for "Fc1ccccc1CCNCc1cccc(Cl)c1Cl" in this test. Y

Look up the recorded call for "O=P(Nc1ccccc1)(Nc1ccccc1)Oc1cccc(Cl)c1" in this test. Y

Look up the recorded call for "CN1CCN(c2ccc3ccccc3n2)CC1" in this test. N

Look up the recorded call for "C[C@@H]1O[C@@H](O[C@H]2C[C@@H](O)[C@]3(CO)[C@@H]4[C@@H](O)C[C@]5(C)[C@H](C6=CC(=O)OC6)CC[C@@]5(O)[C@H]4CC[C@@]3(O)C2)[C@H](O)[C@H](O)[C@@H]1O" in this test. N

Look up the recorded call for "CCCN(CCC)[C@@H]1CCc2c(OC)cccc2[C@@H]1C" in this test. N

Look up the recorded call for "CCCN1CCC[C@H](c2cccc(C#N)c2)C1" in this test. N

Look up the recorded call for CC(O)(CS(=O)(=O)c1cccc(C(F)(F)F)c1)C(=O)Nc1cccc(C(F)(F)F)c1 (stereo unspecified) in this test. Y

Look up the recorded call for "CC(=O)N[C@@H]1CCSC1=O" in this test. N

Look up the recorded call for "C=Cn1ccnc1P(=S)(c1nccn1C=C)C1CCCCC1" in this test. Y

Look up the recorded call for "CCCN1CCO[C@@H]2c3cc(O)ccc3OC[C@H]21" in this test. N

Look up the recorded call for "Clc1cnc(Oc2ccc(Oc3ncc(Cl)cc3Cl)cc2)c(Cl)c1" in this test. N

Look up the recorded call for "Cc1cc(OCC(=O)OC(C)C)c2c3c(c(=O)oc2c1)CCCC3" in this test. Y

Look up the recorded call for "N[C@@H](Cn1oc(=O)[nH]c1=O)C(=O)O" in this test. N

Look up the recorded call for "N[C@H](Cc1o[nH]c(=O)c1Cl)C(=O)O" in this test. Y

Look up the recorded call for "C/C=C1\C[N@@+]2(C)CC[C@@]34C(=C(C=O)[C@H]1C[C@H]32)Nc1ccccc14" in this test. N

Look up the recorded call for "N[C@H](CCl)C(=O)O" in this test. N

Look up the recorded call for "C[C@@]12CC[C@H](O)C[C@@H]1CC[C@H]1[C@H]2CC[C@@]2(C)[C@@H](C3=CC(=O)OC3)CC[C@]12O" in this test. N

Look up the recorded call for Cc1ccc(C2CC(=O)C(C=NCCN3CCN(C(=O)Cc4ccccc4)CC3)=C(O)C2)cc1 (stereo unspecified) in this test. Y

Look up the recorded call for "CN(C)C=C1C(=O)N(C2CCCCC2)C(=O)N(C2CCCCC2)C1=O" in this test. Y

Look up the recorded call for "Oc1ccc2c3c1O[C@H]1c4[nH]c5ccccc5c4C[C@]4(O)[C@H](C2)N(CC2CC2)CC[C@@]314" in this test. Y

Look up the recorded call for "O=C1C=CC(=O)c2c1ccc1c2ccc2ccccc21" in this test. Y

Look up the recorded call for "COc1ccc2c(c1)CN([C@H](C)[C@@H]1CC[C@@H]3[C@H]4CC[C@H]5C[C@@H](O)CC[C@@]5(C)[C@H]4CC[C@]31C)CO2" in this test. Y

Look up the recorded call for "Cc1cc2c(C(C)C)c(O)c(O)c(C=O)c2c(O)c1-c1c(C)cc2c(C(C)C)c(O)c(O)c(C=O)c2c1O" in this test. N

Look up the recorded call for "CS(=O)(=O)Nc1ccc(Cc2noc(-c3ccc4[nH]cc(CCN)c4c3)n2)cc1" in this test. Y

Look up the recorded call for "COCOc1ccc(Br)cc1C(=O)/C=C\c1ccc2c(c1)OCO2" in this test. Y

Look up the recorded call for "CC(C)(c1ccc(OC[C@@H]2CO2)cc1)c1ccc(OC[C@H]2CO2)cc1" in this test. N

Look up the recorded call for "C[C@]12CC[C@H](O)CC1=CC[C@@H]1[C@H]2CC[C@]2(C)C(=O)CC[C@H]12" in this test. N

Look up the recorded call for CC(O)(CS(=O)(=O)c1cccc(C(F)(F)F)c1)C(=O)Nc1ccc(C(F)(F)F)cc1 (stereo unspecified) in this test. Y

Look up the recorded call for "CC(=O)OCC(=O)[C@@H]1CC[C@H]2[C@H]3CC[C@H]4C[C@@H](O)CC[C@]4(C)[C@@H]3C(=O)C[C@@]12C" in this test. N

Look up the recorded call for "CC(C)(C)NC[C@H](O)c1cc(Cl)c(N)c(Cl)c1" in this test. N

Look up the recorded call for C[N+]1([O-])[C@@H]2CC(OC(=O)[C@@H](CO)c3ccccc3)C[C@@H]1[C@H]1O[C@H]12 (stereo partly specified) in this test. N

This collection of values is drawn from PubChem BioAssay AID1851.
